- measured on: GABA A receptor alpha-4/beta-3/gamma-2 (Homo sapiens, UniProt P18507+P28472+P48169)
- Sequence (P18507 whole entry): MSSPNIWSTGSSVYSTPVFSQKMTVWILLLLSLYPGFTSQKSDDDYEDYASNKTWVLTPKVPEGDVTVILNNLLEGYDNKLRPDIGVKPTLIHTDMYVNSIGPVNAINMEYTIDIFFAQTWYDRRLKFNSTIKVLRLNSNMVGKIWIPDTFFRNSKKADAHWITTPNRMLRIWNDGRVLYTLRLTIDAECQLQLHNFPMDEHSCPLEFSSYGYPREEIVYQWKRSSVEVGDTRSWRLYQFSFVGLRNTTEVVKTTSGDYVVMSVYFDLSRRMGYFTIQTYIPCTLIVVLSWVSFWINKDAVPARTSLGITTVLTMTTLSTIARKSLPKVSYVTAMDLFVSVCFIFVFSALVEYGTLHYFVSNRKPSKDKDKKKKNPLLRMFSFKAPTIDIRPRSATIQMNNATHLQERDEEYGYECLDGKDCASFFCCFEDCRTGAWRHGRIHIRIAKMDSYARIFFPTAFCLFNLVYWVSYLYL
- Sequence (P28472 whole entry): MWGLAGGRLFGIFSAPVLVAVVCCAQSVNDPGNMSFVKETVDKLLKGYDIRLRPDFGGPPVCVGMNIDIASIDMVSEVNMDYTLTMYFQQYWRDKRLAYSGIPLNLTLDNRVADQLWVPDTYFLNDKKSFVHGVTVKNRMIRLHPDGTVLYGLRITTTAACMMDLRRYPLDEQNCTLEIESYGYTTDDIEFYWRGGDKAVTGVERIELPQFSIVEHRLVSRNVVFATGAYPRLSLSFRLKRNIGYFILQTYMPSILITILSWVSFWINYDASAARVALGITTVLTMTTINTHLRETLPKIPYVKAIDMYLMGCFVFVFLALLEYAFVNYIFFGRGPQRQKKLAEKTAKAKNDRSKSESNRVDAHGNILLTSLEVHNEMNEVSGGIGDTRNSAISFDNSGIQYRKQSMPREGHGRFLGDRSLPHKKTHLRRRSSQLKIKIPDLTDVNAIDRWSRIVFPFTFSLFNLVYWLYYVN
- Sequence (P48169 whole entry): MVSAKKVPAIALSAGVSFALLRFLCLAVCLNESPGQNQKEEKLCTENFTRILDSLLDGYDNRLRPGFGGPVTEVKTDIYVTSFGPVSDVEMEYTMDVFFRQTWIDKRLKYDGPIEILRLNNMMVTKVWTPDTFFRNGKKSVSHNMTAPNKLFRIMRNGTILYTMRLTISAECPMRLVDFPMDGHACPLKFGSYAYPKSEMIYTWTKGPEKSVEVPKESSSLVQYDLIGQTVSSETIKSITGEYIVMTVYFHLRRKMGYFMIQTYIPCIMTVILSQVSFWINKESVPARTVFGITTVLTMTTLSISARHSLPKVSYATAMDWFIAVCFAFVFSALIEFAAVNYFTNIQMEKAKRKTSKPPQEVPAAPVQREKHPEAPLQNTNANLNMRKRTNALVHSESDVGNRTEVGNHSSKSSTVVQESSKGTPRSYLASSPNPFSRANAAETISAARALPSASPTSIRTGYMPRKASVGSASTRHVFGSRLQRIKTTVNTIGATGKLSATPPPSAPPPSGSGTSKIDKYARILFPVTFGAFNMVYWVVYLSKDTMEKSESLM
- protocol notes: Binding affinity to human recombinant GABA alpha-4-beta-3-gamma-2 receptor
pKi: −log10 of the molar value.
The following molecules are listed with their measured pKi values.

molecular string: CC(=O)c1ncn2c1CN(C)C(=O)c1cc(Cl)ccc1-2
pKi: 5.58
--
molecular string: COCc1ncn2c1CN(C)C(=O)c1cc(Cl)ccc1-2
pKi: 7.41

* * *

- measured on: GABA-A receptor; alpha-5/beta-3/gamma-2 (Homo sapiens, UniProt P18507+P28472+P31644)
- Sequence (P18507 whole entry): as the sequence (P18507 whole entry) above
- Sequence (P28472 whole entry): as the sequence (P28472 whole entry) above
- Sequence (P31644 whole entry): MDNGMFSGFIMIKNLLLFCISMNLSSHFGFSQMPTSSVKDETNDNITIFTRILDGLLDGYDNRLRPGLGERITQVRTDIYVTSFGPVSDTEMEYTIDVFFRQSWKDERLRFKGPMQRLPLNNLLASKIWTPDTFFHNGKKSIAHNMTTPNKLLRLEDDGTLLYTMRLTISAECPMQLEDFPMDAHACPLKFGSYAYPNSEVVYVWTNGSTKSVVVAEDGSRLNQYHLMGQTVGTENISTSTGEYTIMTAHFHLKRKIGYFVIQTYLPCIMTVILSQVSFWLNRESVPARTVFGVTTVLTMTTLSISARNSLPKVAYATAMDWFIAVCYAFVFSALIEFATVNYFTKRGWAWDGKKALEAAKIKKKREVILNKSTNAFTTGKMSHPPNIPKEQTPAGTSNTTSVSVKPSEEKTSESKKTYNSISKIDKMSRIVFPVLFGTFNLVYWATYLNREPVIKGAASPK
- protocol notes: Binding affinity to human recombinant GABA alpha-5-beta-3-gamma-2 receptor
quantity kind: Ki (µM)

molecular string: COCc1ncn2c1CN(C)C(=O)c1cc(Cl)ccc1-2
qual: >
measurement: 0.3
//
molecular string: CC(=O)c1ncn2c1CN(C)C(=O)c1cc(Cl)ccc1-2
qual: =
measurement: 29.5
